List of hERG current change (%, negative = inhibition) at 10uM values.
- TARGET_UNDER_TEST: human ether-à-go-go-related gene (hERG) potassium channel (human);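 further: peak tail current of the secondary pulse compared with the same well before compound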
- Sequence (Q12809 whole entry, looked up): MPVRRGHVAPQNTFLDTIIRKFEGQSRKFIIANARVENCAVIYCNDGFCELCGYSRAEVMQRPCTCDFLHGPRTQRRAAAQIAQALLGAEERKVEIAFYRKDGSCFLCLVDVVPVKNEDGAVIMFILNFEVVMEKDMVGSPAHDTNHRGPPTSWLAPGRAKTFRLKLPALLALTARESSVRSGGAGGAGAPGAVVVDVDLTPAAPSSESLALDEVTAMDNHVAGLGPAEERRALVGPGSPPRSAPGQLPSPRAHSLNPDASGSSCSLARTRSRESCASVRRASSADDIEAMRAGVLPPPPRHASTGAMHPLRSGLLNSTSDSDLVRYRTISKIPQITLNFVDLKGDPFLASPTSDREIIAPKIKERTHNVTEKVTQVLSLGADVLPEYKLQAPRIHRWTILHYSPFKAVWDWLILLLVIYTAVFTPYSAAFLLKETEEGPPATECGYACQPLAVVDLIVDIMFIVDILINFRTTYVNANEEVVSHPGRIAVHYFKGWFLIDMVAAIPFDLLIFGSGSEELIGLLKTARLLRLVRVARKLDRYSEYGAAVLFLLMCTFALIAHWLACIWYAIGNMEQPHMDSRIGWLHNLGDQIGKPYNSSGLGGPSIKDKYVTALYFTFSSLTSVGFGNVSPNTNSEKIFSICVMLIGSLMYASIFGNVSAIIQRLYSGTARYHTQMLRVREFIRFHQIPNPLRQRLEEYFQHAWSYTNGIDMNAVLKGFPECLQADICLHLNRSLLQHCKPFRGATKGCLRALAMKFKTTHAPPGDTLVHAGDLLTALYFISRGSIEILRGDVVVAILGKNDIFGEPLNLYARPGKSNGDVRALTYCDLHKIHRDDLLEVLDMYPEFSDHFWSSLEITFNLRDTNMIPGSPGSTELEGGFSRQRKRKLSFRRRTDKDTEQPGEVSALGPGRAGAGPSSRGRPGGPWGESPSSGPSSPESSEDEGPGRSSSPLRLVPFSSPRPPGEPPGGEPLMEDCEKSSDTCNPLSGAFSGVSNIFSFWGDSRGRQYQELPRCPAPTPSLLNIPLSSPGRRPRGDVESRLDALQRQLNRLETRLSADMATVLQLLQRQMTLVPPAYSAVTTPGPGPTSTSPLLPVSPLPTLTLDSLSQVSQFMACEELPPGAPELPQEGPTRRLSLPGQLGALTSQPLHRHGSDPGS
- EXPERIMENT_SUMMARY: primary screen, population patch clamp on CHO cells stably expressing hERG; higher = less effect of the substance
The whole screen tested about 310,000 compounds, of which about 14,000 (4.5%) showed an effect of 50% or more. The effect is printed as a negative number. For the sample, strong results were picked, then their nearest neighbours and some compounds at random.
Express the result in % but write the number alone.

Worked examples follow.
COMPOUND	ASSAY_VALUE
COc1ccccc1NC(=O)C(C)OC(=O)c1ccc(-n2cnnn2)cc1 (stereo not drawn)	-87.5
CCC(C)Sc1ccc([C@H]2N[C@@](C)(C(=O)OC)[C@H]3C(=O)N(CC)C(=O)[C@@H]23)cc1.O=C(O)C(F)(F)F (stereo partly drawn)	7.25

input: Which measured hERG current change (%, negative = inhibition) at 10uM value corresponds to Cc1cccc(-n2c(SCc3cc(=O)n4ccsc4n3)nc3ccccc3c2=O)c1 ?
output: -5.76

input: Consider next the compound O=C(O)C(=O)O.O=S(=O)(c1ccc(Cl)cc1)N1CCC(N2CCOCC2)CC1 in the same way.
output: -11.5
